system: L929; test: Cell viability assay, protection from necroptosis in L929 cells; type: cell-based, mouse; conditions: Mus musculus, L929, 16 h, read-out: EC50 L929 T + S
outcome.measure: EC50 (nM)
Please respond with the number in nM and leave the unit unwritten.

These recorded examples may help you get a feel for the data.
-- ask Entry under review: Cn1ncc(C(=O)NCc2ccc(-n3ncc4c(N)ncnc43)cc2)c1Cc1ccccc1 . Reported EC50?
-- reply 23

-- ask Entry under review: C[C@H](NC(=O)c1c(Cl)nn(C)c1Cc1ccccc1)c1ccc(-n2cnc3c(N)ncnc32)cc1 . Reported EC50?
-- reply 0.4

-- ask Entry under review: COc1cc2ncn(-c3ccc(CNC(=O)c4cnn(C)c4Cc4ccccc4)cc3)c2cc1OC . Reported EC50?
-- reply 0.4

More entries:
-- ask Entry under review: Cn1nc2c(c1Cc1ccccc1)C(=O)N(Cc1ccc(-n3cnc4c(N)ncnc43)cc1)CC2 . Reported EC50?
-- reply 39

-- ask Entry under review: CCn1ncc(C(=O)NCc2ccc(-n3cnc4c(N)ncnc43)cc2)c1Cc1ccccc1 . Reported EC50?
-- reply 74

====

assay: PK study in mice; assay type: in vivo; conditions: male, ICR, mouse, plasma, po, 10 mg/kg
Classification field: class 1 = bioavailability at or over 30%; class 0 = bioavailability under 30%.

-- ask bioavailability >= 30% for C[C@@H](c1ccc(-n2cnc3c(N)ncnc32)cc1)N1Cc2nn(C)c(Cc3ccccc3)c2C1=O ?
-- reply class 0

More entries:
-- ask bioavailability >= 30% for Cn1nnc(C(=O)NCc2ccc(-n3cnc4c(N)ncnc43)cc2)c1Cc1ccccc1 ?
-- reply class 1

====

experiment: PK study in mice; format: in vivo; conditions: male, ICR, mouse, plasma, po, 5 mg/kg
outcome.measure: half-life (h)
Please respond with the number in h and leave the unit unwritten.

-- ask Entry under review: C[C@@H](c1ccc(-n2cnc3c(N)ncnc32)cc1)N1CCc2nn(C)c(Cc3ccccc3)c2C1=O [compound 62] . Reported half-life?
-- reply 3.86

====

experiment: PK study in rats; format: in vivo; details: male, SD, rat, plasma, po, 5 mg/kg
outcome.measure: AUC(0-t) (ng·h/mL)
Please respond with the number in ng·h/mL and leave the unit unwritten.

-- ask Entry under review: C[C@@H](c1ccc(-n2cnc3c(N)ncnc32)cc1)N1CCc2nn(C)c(Cc3ccccc3)c2C1=O . Reported AUC(0-t)?
-- reply 2200

====

test: PK study in mice; type: in vivo; details: male, ICR, mouse, plasma, iv, 1 mg/kg
// clearance lookup, one value per entry
Please respond with the number in mL/min/kg and leave the unit unwritten.

-- ask Entry under review: C[C@@H](c1ccc(-n2cnc3c(N)ncnc32)cc1)N1Cc2nn(C)c(Cc3ccccc3)c2C1=O . Reported clearance?
-- reply 26.7

-- ask Entry under review: Cn1ncc(C(=O)NCc2ccc(-n3cnc4c(N)ncnc43)cc2)c1Cc1ccccc1 . Reported clearance?
-- reply 18.3

-- ask Entry under review: C[C@H](NC(=O)c1cnn(C)c1Cc1ccccc1)c1ccc(-n2cnc3c(N)ncnc32)cc1 . Reported clearance?
-- reply 25

-- ask Entry under review: Cn1nc(Cl)c(C(=O)NCc2ccc(-n3cnc4c(N)ncnc43)cc2)c1Cc1ccccc1 . Reported clearance?
-- reply 13.3

Now take the following molecule into account.
-- ask Entry under review: Cn1nnc(C(=O)NCc2ccc(-n3cnc4c(N)ncnc43)cc2)c1Cc1ccccc1 . Reported clearance?
-- reply 11.7

====

tested on: FADD−/− Jurkat; test: Cell viability assay, protection from necroptosis in FADD−/− Jurkat cells; format: cell-based; settings: Homo sapiens, 16 h, read-out: EC50 FADD−/− Jurkat TNFα
Each record's class is read off its EC50 using these ranges: one (below 0.1 nM), two (0.1 nM to below 20 nM), three (20 nM or more)

-- ask // return the class label for Cn1nc2c(c1Cc1ccccc1)C(=O)N(Cc1ccc(-n3cnc4c(N)ncnc43)cc1)CC2
-- reply two

More entries:
-- ask // return the class label for CCCn1nc(C(=O)NCc2ccc(-n3cnc4cc(C(=O)NC)ccc43)cc2)cc1Cc1ccccc1
-- reply three

-- ask // return the class label for CN1C(=O)[C@@H](NC(=O)c2n[nH]c(Cc3ccccc3)n2)COc2ccccc21 [compound 2, GSK2982772, reference compound]
-- reply two

====

test: PK study in mice; assay type: in vivo; conditions: male, ICR, mouse, plasma, iv, 1 mg/kg
outcome.measure: Vd (L/kg)
Please respond with the number in L/kg and leave the unit unwritten.

-- ask Entry under review: Cn1ncc(C(=O)NCc2ccc(-n3cnc4c(N)ncnc43)cc2)c1Cc1ccccc1 . Reported Vd?
-- reply 2.35

More entries:
-- ask Entry under review: C[C@@H](c1ccc(-n2cnc3c(N)ncnc32)cc1)N1Cc2nn(C)c(Cc3ccccc3)c2C1=O . Reported Vd?
-- reply 1.6

-- ask Entry under review: C[C@H](NC(=O)c1cnn(C)c1Cc1ccccc1)c1ccc(-n2cnc3c(N)ncnc32)cc1 . Reported Vd?
-- reply 2.98

-- ask Entry under review: Cn1nnc(C(=O)NCc2ccc(-n3cnc4c(N)ncnc43)cc2)c1Cc1ccccc1 . Reported Vd?
-- reply 6.98

-- ask Entry under review: Cn1nc(Cl)c(C(=O)NCc2ccc(-n3cnc4c(N)ncnc43)cc2)c1Cc1ccccc1 . Reported Vd?
-- reply 1.55

====

// pEC50 lookup, one value per entry
test system: L929; test: Cell viability assay, protection from necroptosis in L929 cells; assay type: cell-based, mouse; details: Mus musculus, L929, 16 h, read-out: EC50 L929 T + S
# pEC50: negative log10 of molar concentration; output just the value

-- ask Entry under review: CNC(=O)c1ccc2c(c1)ncn2-c1ccc(CNC(=O)c2cnn(C)c2Cc2ccccc2)cc1 [compound 27] . Reported pEC50?
-- reply 7.11

Now take the following molecule into account.
-- ask Entry under review: CNC(=O)c1ccc2c(c1)ncn2-c1ccc(CNC(=O)c2nocc2Cc2ccccc2)cc1 [compound 19] . Reported pEC50?
-- reply 5.48

====

assay: PK study in mice; assay type: in vivo; details: male, ICR, mouse, plasma, iv, 0.5 mg/kg
outcome.measure: Vd

-- ask Entry under review: C[C@@H](c1ccc(-n2cnc3c(N)ncnc32)cc1)N1CCc2nn(C)c(Cc3ccccc3)c2C1=O . Reported Vd?
-- reply 0.94 L/kg

====

test: PK study in rats; type: in vivo; details: male, SD, rat, plasma, iv, 0.5 mg/kg
outcome.measure: half-life (min)
Please respond with the number in min and leave the unit unwritten.

-- ask Entry under review: C[C@@H](c1ccc(-n2cnc3c(N)ncnc32)cc1)N1CCc2nn(C)c(Cc3ccccc3)c2C1=O [compound 62] . Reported half-life?
-- reply 54.6

====

assay: PK study in mice; assay type: in vivo; settings: male, ICR, mouse, plasma, po, 10 mg/kg
Strictly below 2000 ng·h/mL in AUC(0-t): satisfied. Otherwise: not satisfied.

-- ask Input Cn1nnc(C(=O)NCc2ccc(-n3cnc4c(N)ncnc43)cc2)c1Cc1ccccc1 ; condition: AUC(0-t) strictly below 2000 ng·h/mL. Does it hold?
-- reply not satisfied

More entries:
-- ask Input Cn1ncc(C(=O)NCc2ccc(-n3cnc4c(N)ncnc43)cc2)c1Cc1ccccc1 ; condition: AUC(0-t) strictly below 2000 ng·h/mL. Does it hold?
-- reply not satisfied

-- ask Input C[C@@H](c1ccc(-n2cnc3c(N)ncnc32)cc1)N1Cc2nn(C)c(Cc3ccccc3)c2C1=O ; condition: AUC(0-t) strictly below 2000 ng·h/mL. Does it hold?
-- reply satisfied

-- ask Input Cn1nc(Cl)c(C(=O)NCc2ccc(-n3cnc4c(N)ncnc43)cc2)c1Cc1ccccc1 ; condition: AUC(0-t) strictly below 2000 ng·h/mL. Does it hold?
-- reply not satisfied

-- ask Input C[C@H](NC(=O)c1cnn(C)c1Cc1ccccc1)c1ccc(-n2cnc3c(N)ncnc32)cc1 ; condition: AUC(0-t) strictly below 2000 ng·h/mL. Does it hold?
-- reply not satisfied

====

test: PK study in mice; assay type: in vivo; details: male, ICR, mouse, plasma, iv, 1 mg/kg
outcome.measure: MRT inf (h)
Please respond with the number in h and leave the unit unwritten.

These recorded examples may help you get a feel for the data.
-- ask Entry under review: Cn1nnc(C(=O)NCc2ccc(-n3cnc4c(N)ncnc43)cc2)c1Cc1ccccc1 . Reported MRT inf?
-- reply 10.5

-- ask Entry under review: Cn1ncc(C(=O)NCc2ccc(-n3cnc4c(N)ncnc43)cc2)c1Cc1ccccc1 . Reported MRT inf?
-- reply 2.08

-- ask Entry under review: C[C@@H](c1ccc(-n2cnc3c(N)ncnc32)cc1)N1Cc2nn(C)c(Cc3ccccc3)c2C1=O . Reported MRT inf?
-- reply 0.97

More entries:
-- ask Entry under review: Cn1nc(Cl)c(C(=O)NCc2ccc(-n3cnc4c(N)ncnc43)cc2)c1Cc1ccccc1 . Reported MRT inf?
-- reply 1.97

-- ask Entry under review: C[C@H](NC(=O)c1cnn(C)c1Cc1ccccc1)c1ccc(-n2cnc3c(N)ncnc32)cc1 . Reported MRT inf?
-- reply 1.98
